Collected literature values of log10 of IC50 measured for Renin (Homo sapiens, UniProt P00797).
endpoint name: log10 of IC50 (log10 of the value in nM)

compound: CC[C@H](C)CNC(=O)C[C@H](O)[C@H](CC1CCCCC1)NC(=O)[C@H](CCCCNC(=O)CNC(C)=O)NC(=O)C(Cc1cccc2ccccc12)Cc1cccc2ccccc12
log10 of IC50: 1.43
//
compound: COC(=O)CN(C)C(=O)CC(Cc1cccc2ccccc12)C(=O)N[C@@H](Cc1c[nH]cn1)C(=O)N[C@@H](CC(C)C)C(O)C(=O)NCCC(C)C (mixture of isomers)
log10 of IC50: 1.36
//
compound: CC(C)CC(NC(=O)C(Cc1ccccc1)NC(=O)OC(C)(C)C)C(=O)N[C@@H](CC1CCCCC1)C(=O)C(F)(F)CS(=O)(=O)C(C)C (stereo partly drawn)
log10 of IC50: 0.00
//
compound: CC(C)CC(=O)NC(CCCC(=O)NC(CC(C)C)C(O)CC(=O)NC(CC(C)C)C(=O)NCc1ccccc1)Cc1ccccc1 (stereo not drawn)
log10 of IC50: 4.41
//
compound: CC(C)CC(=O)N[C@@H](Cc1ccccc1)C(=O)N[C@@H](Cc1c[nH]cn1)C(=O)NC(CC(C)C)C(O)CC(CC(C)C)C(=O)NCc1ccccc1 (stereo partly drawn)
log10 of IC50: 2.87
//
compound: CC[C@H](C)CNC(=O)C[C@H](O)[C@H](CC(C)C)NC(=O)[C@H](CCCCNC(=O)[C@@H]1CCC(=O)N1)NC(=O)C(Cc1cccc2ccccc12)Cc1cccc2ccccc12
log10 of IC50: 1.63
//
compound: COCC(O)[C@H](CC(C)C)NC(=O)[C@H](Cc1cnc[nH]1)NC(=O)C(CC(=O)NCCc1ccccc1)Cc1cccc2ccccc12 (single isomer, unassigned)
log10 of IC50: 2.90
//
compound: COc1ccccc1COCCCOc1ccc([C@H]2CCNC[C@@H]2OCc2ccc3c(c2)N(CCNC(C)=O)CCC3)cc1
log10 of IC50: -1.30
//
compound: CC(C)C[C@H](O)[C@H](O)[C@H](CC1CCCCC1)NC(=O)[C@H](Cc1c[nH]cn1)NC(=O)c1nc2ccccc2n1Cc1ccccc1
log10 of IC50: 2.23
//
compound: CC[C@H](C)CNC(=O)C[C@H](O)[C@H](CC(C)C)NC(=O)[C@H](CCCCNC(=O)CN)NC(=O)C(Cc1cccc2ccccc12)Cc1cccc2ccccc12
log10 of IC50: 2.85
//
compound: CC(C)CCC(=O)NCC[C@H](O)[C@H](CC1CCCCC1)NC(=O)C(Cc1ccncn1)NC(=O)[C@H](Cc1ccccc1)NC(=O)OC(C)(C)C (mixture of isomers)
log10 of IC50: 1.30
